Target or system serotonin 2 receptor (Rattus norvegicus, UniProt P14842); recorded quantity pKi.
Structures can show the parent of a compound that is named as a salt.
// returns pKi (minus log10 of molar concentration), number only

CCN1CCN(c2nc(-c3ccc(CCC(C)O)nc3)cc3ccccc23)CC1 (stereo not shown) | 7.94

// compound CCN1CCN(c2nc(-c3ccc(S(=O)(=O)CCCF)cc3)cc3ccccc23)CC1 [Example 355, dihydrochloride] , assay serotonin 2 receptor (Rattus norvegicus, UniProt P14842), pKi value: 8.31

Recorded pKi for CCN1CCN(c2nc(-c3ccc(S(=O)(=O)N4CCS(=O)(=O)CC4)cc3)cc3ccccc23)CC1 [Example 77, Hydrochloride] on serotonin 2 receptor (Rattus norvegicus, UniProt P14842) was 7.04

Form field, pKi with serotonin 2 receptor (Rattus norvegicus, UniProt P14842), item CCN1CCN(c2nc(C#Cc3ccccn3)cc3ccccc23)CC1 [Example 179, Oxalate] : 9.40
